biological target: PfGSK3 (Plasmodium falciparum)
pIC50: −log10 of the molar value.

| COMPOUND | pIC50 |
| --- | --- |
| O=C(NCCCN1CCOCC1)c1ccc(Nc2ncc(Cl)c(-c3ccc(Cl)s3)n2)cc1 [Compound 23e] | > 7.00 |
| Cc1ccc(-c2nc(Nc3ccc(C(=O)NCCCN4CCOCC4)cc3)ncc2Cl)s1 [Compound 23f] | > 7.00 |

---

Target: UniProtKB O77344
Sequence (O77344 1-440): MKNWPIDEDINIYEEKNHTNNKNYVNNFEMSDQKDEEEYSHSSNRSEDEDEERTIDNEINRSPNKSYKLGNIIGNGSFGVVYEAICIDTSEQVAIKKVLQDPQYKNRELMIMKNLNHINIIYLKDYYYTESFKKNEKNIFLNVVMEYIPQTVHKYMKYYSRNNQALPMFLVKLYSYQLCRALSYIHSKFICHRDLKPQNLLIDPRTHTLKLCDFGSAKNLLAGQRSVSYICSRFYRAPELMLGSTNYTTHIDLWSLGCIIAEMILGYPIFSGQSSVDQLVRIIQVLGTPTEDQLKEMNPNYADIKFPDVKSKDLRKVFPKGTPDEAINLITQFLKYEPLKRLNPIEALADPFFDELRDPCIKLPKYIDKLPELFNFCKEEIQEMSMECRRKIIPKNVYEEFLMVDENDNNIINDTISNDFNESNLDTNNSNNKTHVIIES
Assay: KinaseSeeker split luciferase assay on PfGSK3
Format: biochemical
Conditions: screen at 1 μM

| COMPOUND | activity on PfGSK3, in words |
| --- | --- |
| c1ccc(CNc2nccc(-c3cc4ccccc4s3)n2)cc1 [Compound 4h] | inactive |
| O=C(c1ccc(Nc2nccc(-c3ccco3)n2)cc1)N1CCC(N2CCCC2)CC1 [Compound 18e] | inactive |
| O=C(c1ccc(Nc2nccc(-c3ccc(-c4ccccc4)s3)n2)cc1)N1CCC(N2CCCC2)CC1 [Compound 18k] | inactive |

---

test: HepG2 CellTiter-Glo cytotoxicity assay; type: cell-based, human; conditions: human, HepG2 cells

| SMILES_REPRESENTATION | viability at 48 h, 200 nM [%] |
| --- | --- |
| c1ccc2sc(-c3ccnc(Nc4ccc(CN5CCC(N6CCCC6)CC5)cc4)n3)cc2c1 | 100 |

---

This listing pairs molecules with measured fold increase in potency on PfPK6.
molecular target: PfPK6 (Plasmodium falciparum); assay: KinaseSeeker split luciferase assay on PfPK6; format: biochemical; conditions: compared to IKK16

| MOLECULE | SYSTEM_NAME | fold increase in potency on PfPK6, fold |
| --- | --- | --- |
| Cc1cnc(Nc2ccc(C(=O)N3CCC(N4CCCC4)CC3)cc2)nc1-c1cc2ccccc2s1 [Compound 18n] | PfPK6 (Plasmodium falciparum) | 9 |
| O=C(c1ccc(Nc2ncc(Cl)c(-c3cc4ccccc4s3)n2)cc1)N1CCC(N2CCCC2)CC1 [Compound 18r] | PfPK6 (Plasmodium falciparum) | 20 |

---

Quick reference: fold increase in potency on PfPK6 of the listed items.
Target: PfPK6 (Plasmodium falciparum, UniProt Q8IDW1)
Sequence (Q8IDW1 1-305): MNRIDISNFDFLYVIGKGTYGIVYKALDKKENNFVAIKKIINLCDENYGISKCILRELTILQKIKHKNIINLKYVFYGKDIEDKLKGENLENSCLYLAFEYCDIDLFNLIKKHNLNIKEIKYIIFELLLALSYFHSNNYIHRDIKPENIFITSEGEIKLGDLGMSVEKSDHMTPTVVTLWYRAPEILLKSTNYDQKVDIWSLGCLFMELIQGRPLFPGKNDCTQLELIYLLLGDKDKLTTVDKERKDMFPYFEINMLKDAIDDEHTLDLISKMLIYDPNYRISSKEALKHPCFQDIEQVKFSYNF
Test: KinaseSeeker split luciferase assay on PfPK6
Assay type: biochemical
Settings: compared to IKK16

| SMILES_REPRESENTATION | fold increase in potency on PfPK6 |
| --- | --- |
| O=C(c1ccc(Nc2nccc(-c3cc4ccccc4s3)n2)cc1)N1CCC(N2CCCCC2)CC1 | ~4 fold |
| c1ccc2sc(-c3ccnc(Nc4ccc(CN5CCC(N6CCCC6)CC5)cc4)n3)cc2c1 | ~3 fold |
| CN1CCN(CCCNC(=O)c2ccc(Nc3nccc(-c4cc5ccccc5s4)n3)cc2)CC1 | ~3 fold |
